The origin of these recorded values is patent EP4700044A1.

Measured on: T1, FGFR1c and the cofactor β-Klotho (Homo sapiens, UniProt P11362+Q86Z14)
T1 construct: host or cells: iLite FGF21 assay ready cells (genetically engineered reporter gene cell line)
Assay info: dual-luciferase reporter gene assay in iLite FGF21 assay ready cells
Assay type: cell-based
Protocol conditions: Example 6, four-parameter fitting
Below is a list of entries, each paired with its recorded pEC50 value.
// pEC50 is dimensionless: -log10 of concentration (M)

molecule="Compound 5.12: FGF21H125C mutant (SEQ NO: 9) modified by the albumin-binding agent of Example 2.3 (conjugate, albumin-binding agent of Example 2.3) HPIPDSSPLLQFGGQVRQRYLYTDDAQQTEAHLEIREDGTVGGAADQSPESLLQLKALKPGVIQILGVKTSRFLCQRPDGALYGSLHFDPEACSFRERLLEDGYNVYQSEAHGLPLHLPGNKSPCRDPAPRGPARFLPLPGLPPAPPEPPGILAPQPPDVGSSDPLSMVGGSQGRSPSYES" recorded_measurement=8.85

Query: Retrieve pEC50 measured for Compound 5.3: FGF21D46C mutant (SEQ NO: 7) modified by the albumin-binding agent of Example 2.1 (conjugate, albumin-binding agent of Example 2.1) HPIPDSSPLLQFGGQVRQRYLYTDDAQQTEAHLEIREDGTVGGAACQSPESLLQLKALKPGVIQILGVKTSRFLCQRPDGALYGSLHFDPEACSFRERLLEDGYNVYQSEAHGLPLHLPGNKSPHRDPAPRGPARFLPLPGLPPAPPEPPGILAPQPPDVGSSDPLSMVGGSQGRSPSYES and print it.
Response: 9.62
